- Tested on: ACHN
- Assay method text: NCI tumour cell line growth inhibition, 48 h
Calls of active or inactive are those of the source. Cut-off read from the data, not from the text of the source: active = GI50 up to about 1.1 µM and inactive = higher. Where a SMILES comes first, the peptide text is derived from it. [ ]: non-standard residue; d: D form. The star is where a group is joined. Phe(4-NO2) = N[CH](Cc1ccc([N+](=O)[O-])cc1)C(=O)O; Boc = CC(C)(C)OC(=O)*
# key: entry, value: GI50
Measured property: GI50

* OC(C1CCCC1=N/N=C1/CCCC1C(O)(C(F)(F)Cl)C(F)(F)Cl)(C(F)(F)Cl)C(F)(F)Cl (centres undefined) | > 10 µM (inactive)
* N#Cc1cc([N+](=O)[O-])ccc1NC(=O)/C(=N\NC(=O)c1ccncc1)C(c1cnc2ccc([N+](=O)[O-])cc2n1)[N+](=O)[O-] (centres undefined) | 2.54 µM (inactive)
* COC(=O)N/N=C(/CCC(=O)Nc1ccc(C)c(C)c1)CC(=O)C(C)(C)C | > 100 µM (inactive)
* O=C(O)C(NCc1ccccc1)C(NCc1ccccc1)C(=O)O (centres undefined) | > 100 µM (inactive)
* O=C1C2=Cc3ccccc3OC2(O)Oc2cc3ccccc3cc21 (centres undefined) | 87.9 µM (inactive)
* C=C1C(=O)O[C@@H]2/C=C(\C)CC/C=C(/COC(C)=O)C[C@@H](OC(C)=O)[C@@H]12 | 4.38 µM (inactive)
* COC(=O)C1(Cc2ccc3c(c2)CCC3)Cc2ccc3c(c2C1O)CCC3 (centres undefined) | 13 µM (inactive)
* COC1=CC(=O)[C@@]2(C)C(C)[C@H](c3ccccc3)[C@H]2C1=O (some centres undefined) | > 100 µM (inactive)
* COc1cc2c(C)cc(O)cc2c2cc(O)c(C)cc12 | 12.4 µM (inactive)
* Nc1nc2c(ncn2CC(CO)CC(c2ccccc2)P(=O)(O)O)c(=O)[nH]1 (centres undefined) | > 100 µM (inactive)
* Cc1cccc(Nc2cn(CCOc3ccccc3)c(=O)n(CCOc3ccccc3)c2=O)c1 | > 100 µM (inactive)
* CCOC(=O)CC(C)C1(C(=O)OCC)CCCCC1=O (centres undefined) | > 100 µM (inactive)
* Cc1c(N2C(=O)C(Cl)C2/C=C/c2ccccc2)c(=O)n(-c2ccccc2)n1C (centres undefined) | 20.3 µM (inactive)
* O=c1oc2ccccc2c(Nc2ccc3c(c2)Sc2ccccc2O3)c1[N+](=O)[O-] | 19.6 µM (inactive)
* O=[N+]([O-])c1ccc(/C=N/C23CC4CC(CC(C4)C2)C3)cc1 | > 100 µM (inactive)
* O=c1c2ccccc2nc(-c2cccc(Cl)c2)n1NCC1(O)OCC(O)C(O)C1O (centres undefined) | > 100 µM (inactive)
* O=C(O)CCCc1ccc2c(c1)CC1(C2)Cc2ccc(CCCC(=O)O)cc2C1 | > 100 µM (inactive)
* O=C(O)CN1CCNCCN(CP(=O)(O)O)CC1 | > 100 µM (inactive)
* CCOC(=O)CCC(NC(=O)C(Cc1ccc([N+](=O)[O-])cc1)NC(=O)OC(C)(C)C)C(=O)NC(CCC(=O)OCC)C(=O)OCC (centres undefined) (Boc-[Phe(4-NO2)]-Glu(OEt)-Glu(OEt)-OEt; configuration not given here) | 17.4 µM (inactive)
